# protocol.conditions: in n-butanol, 313.15 K
measurement.kind: solubility (mole fraction)

What does the record list as solubility (mole fraction) for O.O=c1c(O)c(-c2ccc(O)cc2)oc2cc(O)cc(O)c12 ? 0.0197

* * *

# protocol.conditions: in n-propanol, 298.15 K
measurement.kind: solubility (mole fraction)
Keep it simple and answer with nothing but the number.

Which solubility (mole fraction) is listed for O.O=c1c(O)c(-c2ccc(O)cc2)oc2cc(O)cc(O)c12 ? 0.0103

* * *

# protocol.conditions: in n-propanol, 323.15 K
measurement.kind: solubility (mole fraction)

Please look up its solubility (mole fraction): O.O=c1c(O)c(-c2ccc(O)cc2)oc2cc(O)cc(O)c12 0.0217

* * *

# protocol.conditions: in isopropanol, 313.15 K
measurement.kind: solubility (mole fraction)
Please reply with the number alone, leaving off any unit.

# solubility (mole fraction) lookup, item O.O=c1c(O)c(-c2ccc(O)cc2)oc2cc(O)cc(O)c12 0.0222

* * *

# protocol.conditions: in n-butanol, 298.15 K
measurement.kind: solubility (mole fraction)
Note: the reply should be a number with no unit written.

// solubility (mole fraction) lookup, key: O.O=c1c(O)c(-c2ccc(O)cc2)oc2cc(O)cc(O)c12 0.0113

* * *

# protocol.conditions: in n-butanol, 308.15 K
measurement.kind: solubility (mole fraction)

Which solubility (mole fraction) reading was recorded for the molecule O.O=c1c(O)c(-c2ccc(O)cc2)oc2cc(O)cc(O)c12 ? 0.0164

* * *

# protocol.conditions: in sec-butanol, 313.15 K
measurement.kind: solubility (mole fraction)

# solubility (mole fraction) lookup, item O.O=c1c(O)c(-c2ccc(O)cc2)oc2cc(O)cc(O)c12 0.0196

* * *

# protocol.conditions: in sec-butanol, 303.15 K
measurement.kind: solubility (mole fraction)

# input compound: O.O=c1c(O)c(-c2ccc(O)cc2)oc2cc(O)cc(O)c12 ; wanted: its solubility (mole fraction) 0.0138

* * *

# protocol.conditions: in n-butanol, 323.15 K
measurement.kind: solubility (mole fraction)
Respond using a number only.

Fill in: solubility (mole fraction) of O.O=c1c(O)c(-c2ccc(O)cc2)oc2cc(O)cc(O)c12 is ___ 0.028

* * *

# protocol.conditions: in isopropanol, 323.15 K
measurement.kind: solubility (mole fraction)
API note: the answer field is a bare number with no unit suffix.

So what does the record say about solubility (mole fraction) for O.O=c1c(O)c(-c2ccc(O)cc2)oc2cc(O)cc(O)c12 ? 0.036

* * *

# protocol.conditions: in n-butanol, 293.15 K
measurement.kind: solubility (mole fraction)

Consider the compound O.O=c1c(O)c(-c2ccc(O)cc2)oc2cc(O)cc(O)c12 and give its measured solubility (mole fraction). 0.00935

* * *

# protocol.conditions: in n-propanol, 288.15 K
measurement.kind: solubility (mole fraction)
Just the number, please.

// solubility (mole fraction) lookup, key: O.O=c1c(O)c(-c2ccc(O)cc2)oc2cc(O)cc(O)c12 0.00727

* * *

# protocol.conditions: in isopropanol, 283.15 K
measurement.kind: solubility (mole fraction)
Format: numeric value only, no unit, no commentary.

# lookup: solubility (mole fraction) of O.O=c1c(O)c(-c2ccc(O)cc2)oc2cc(O)cc(O)c12 0.00356

* * *

# protocol.conditions: in n-propanol, 293.15 K
measurement.kind: solubility (mole fraction)
Returns: the value as a bare number; no unit string appended.

Please look up its solubility (mole fraction): O.O=c1c(O)c(-c2ccc(O)cc2)oc2cc(O)cc(O)c12 0.00861

* * *

# protocol.conditions: in n-butanol, 318.15 K
measurement.kind: solubility (mole fraction)
Form field (numeric): enter value without unit.

# query: solubility (mole fraction) of entry O.O=c1c(O)c(-c2ccc(O)cc2)oc2cc(O)cc(O)c12 0.0236

* * *

# protocol.conditions: in sec-butanol, 308.15 K
measurement.kind: solubility (mole fraction)
Please state the value as a number alone, without comment.

Could you share which solubility (mole fraction) value was measured for O.O=c1c(O)c(-c2ccc(O)cc2)oc2cc(O)cc(O)c12 ? 0.0164

* * *

# protocol.conditions: in n-butanol, 303.15 K
measurement.kind: solubility (mole fraction)
Reply briefly: the number, and no unit.

What measured solubility (mole fraction) goes with O.O=c1c(O)c(-c2ccc(O)cc2)oc2cc(O)cc(O)c12 ? 0.0137

* * *

# protocol.conditions: in ethanol, 313.15 K
measurement.kind: solubility (mole fraction)
Write the value as a bare number.

Look up solubility (mole fraction) for this molecule: O.O=c1c(O)c(-c2ccc(O)cc2)oc2cc(O)cc(O)c12 0.0212

* * *

# protocol.conditions: in n-butanol, 288.15 K
measurement.kind: solubility (mole fraction)
Response field accepts a number only; no unit should be typed.

Quick check: solubility (mole fraction) of O.O=c1c(O)c(-c2ccc(O)cc2)oc2cc(O)cc(O)c12 ? 0.00772

* * *

# protocol.conditions: in isopropanol, 288.15 K
measurement.kind: solubility (mole fraction)
Provide a numeric answer; units are not to be included.

Quick check: solubility (mole fraction) of O.O=c1c(O)c(-c2ccc(O)cc2)oc2cc(O)cc(O)c12 ? 0.00502

* * *

# protocol.conditions: in sec-butanol, 318.15 K
measurement.kind: solubility (mole fraction)
Please reply with the value in numeric form only.

For the compound shown here, O.O=c1c(O)c(-c2ccc(O)cc2)oc2cc(O)cc(O)c12 , give the reported solubility (mole fraction). 0.0236

* * *

# protocol.conditions: in isopropanol, 298.15 K
measurement.kind: solubility (mole fraction)
Returns: the value as a bare number; no unit string appended.

Given the compound O.O=c1c(O)c(-c2ccc(O)cc2)oc2cc(O)cc(O)c12 , what is its reported solubility (mole fraction)? 0.00907

* * *

# protocol.conditions: in isopropanol, 308.15 K
measurement.kind: solubility (mole fraction)

Query: solubility (mole fraction); subject: O.O=c1c(O)c(-c2ccc(O)cc2)oc2cc(O)cc(O)c12 0.0171

* * *

# protocol.conditions: in n-propanol, 303.15 K
measurement.kind: solubility (mole fraction)

Would you kindly share the measured solubility (mole fraction) for O.O=c1c(O)c(-c2ccc(O)cc2)oc2cc(O)cc(O)c12 ? 0.0121

* * *

# protocol.conditions: in n-propanol, 318.15 K
measurement.kind: solubility (mole fraction)
Enter the number alone.

Dear colleague, I am looking for the recorded solubility (mole fraction) of the following compound: O.O=c1c(O)c(-c2ccc(O)cc2)oc2cc(O)cc(O)c12 0.0188
